system: right atria; test: Pharmacological Test 1: spontaneous contraction of isolated right atria (chronotropic effect); parameters: species or system male Hartley guinea pig; settings: Cavia porcellus; 3×10^-5 M; percentage of atrial rate after injection, rate before injection = 100%; 30° C.
Items are presented alongside their recorded activity at 30 µM.

Observe how each entry below is paired with its result.
So for COc1ccc(C(O)CN2CC=C(C3=NNC(=O)CS3)CC2)cc1 (stereo not shown) [Compound 1] , the logged activity at 30 µM turned out to be 87.6%

So for O=C1CCC(C2=CCN(CC(O)c3ccc(F)cc3)CC2)=NN1 (stereo not shown) [Compound 51] , the logged activity at 30 µM turned out to be 91.4%

So for Cc1ccc(C(O)CN2CC=C(C3=NNC(=O)CS3)CC2)c(C)c1 (stereo not shown) [Compound 25] , the logged activity at 30 µM turned out to be 65.2%

***
So for O=C1NN=C(C2=CCN(CC(O)c3ccc4ccccc4c3)CC2)CS1 (stereo not shown) [Compound 69] , the logged activity at 30 µM turned out to be 79.7%

###

system: right atria; assay: Pharmacological Test 1: spontaneous contraction of isolated right atria (chronotropic effect); design: species or system male Hartley guinea pig; conditions: Cavia porcellus; 3×10^-5 M; percentage of atrial rate after injection, rate before injection = 100%; 30° C.
activity at 30 µM less than 90% is satisfied; activity at 30 µM greater than or equal to 90% is not satisfied.

Here's what some known entries look like.
Decide: activity at 30 µM of O=C1NN=C(C2=CCN(CC(O)c3ccc(Cl)cc3)CC2)CS1 (stereo not drawn) strictly below 90%? satisfied

Decide: activity at 30 µM of O=C1NN=C(C2=CCN(CC(O)c3ccc(F)cc3)CC2)CS1 (stereo not drawn) strictly below 90%? satisfied

Decide: activity at 30 µM of COc1ccc(C(O)CN2CC=C(C3=NNC(=O)SC3)CC2)cc1 (stereo not drawn) strictly below 90%? satisfied

***
Decide: activity at 30 µM of COc1cccc(C(O)CN2CC=C(C3=NNC(=O)CS3)CC2)c1 (stereo not drawn) strictly below 90%? not satisfied

###

test system: right atria; assay: Pharmacological Test 1: spontaneous contraction of isolated right atria (chronotropic effect); set-up: species or system male Hartley guinea pig; details: Cavia porcellus; 3×10^-5 M; percentage of atrial rate after injection, rate before injection = 100%; 30° C.
Endpoint name: activity at 30 µM
Reply with the number, then its unit.

Observe how each entry below is paired with its result.
The reported activity at 30 µM value, right atria, for O=C1NN=C(C2=CCN(CC(O)c3ccc([N+](=O)[O-])cc3)CC2)CS1 (stereo not drawn) [Compound 45] reads 79.1%

The reported activity at 30 µM value, right atria, for CC1SC(C2=CCN(CC(O)c3ccc(Cl)cc3)CC2)=NNC1=O (stereo not drawn) [Compound 14] reads 73.5%

The reported activity at 30 µM value, right atria, for N#Cc1ccc(C(O)CN2CC=C(C3=NNC(=O)SC3)CC2)cc1 (stereo not drawn) [Compound 47] reads 78.2%

The reported activity at 30 µM value, right atria, for COc1ccc(C(CN2CC=C(C3=NNC(=O)CS3)CC2)OC)cc1 (stereo not drawn) [Compound 70] reads 99.2%

The reported activity at 30 µM value, right atria, for N#Cc1ccc(C(O)CN2CC=C(C3=NNC(=O)CN3)CC2)cc1 (stereo not drawn) [Compound 64] reads 93%

***
The reported activity at 30 µM value, right atria, for O=C1CCC(C2=CCN(CC(O)c3ccccc3C(F)(F)F)CC2)=NN1 (stereo not drawn) [Compound 54] reads 97.3%

The reported activity at 30 µM value, right atria, for COc1ccc(C(O)CN2CC=C(C3=NNC(=O)CC3)CC2)cc1 (stereo not drawn) [Compound 49] reads 87.6%

The reported activity at 30 µM value, right atria, for O=C1CSC(C2=CCN(CC(O)c3cccc(C(F)(F)F)c3)CC2)=NN1 (stereo not drawn) [Compound 34] reads 98.1%

The reported activity at 30 µM value, right atria, for O=C1CSC(C2=CCN(CC(O)c3cccc(O)c3)CC2)=NN1 (stereo not drawn) [Compound 27] reads 98.7%

The reported activity at 30 µM value, right atria, for O=C1CSC(C2=CCN(CC(O)c3ccc(Cl)c(Cl)c3)CC2)=NN1 (stereo not drawn) [Compound 18] reads 97.8%

The reported activity at 30 µM value, right atria, for O=C1CSC(C2=CCN(CC(O)c3cccc([N+](=O)[O-])c3)CC2)=NN1 (stereo not drawn) [Compound 30] reads 100%

The reported activity at 30 µM value, right atria, for O=C1NN=C(C2=CCN(CC(O)c3cccc(O)c3)CC2)CS1 (stereo not drawn) [Compound 44] reads 101%

The reported activity at 30 µM value, right atria, for Cc1ccc(C(O)CN2CC=C(C3=NNC(=O)SC3)CC2)cc1 (stereo not drawn) [Compound 43] reads 85.2%

The reported activity at 30 µM value, right atria, for O=C1CSC(C2=CCN(CC(O)c3ccc(F)cc3)CC2)=NN1 (stereo not drawn) [Compound 35] reads 90.7%

The reported activity at 30 µM value, right atria, for Cc1ccc(C(O)CN2CC=C(C3=NNC(=O)C(C)S3)CC2)cc1 (stereo not drawn) [Compound 22] reads 76.7%
